- Assay Target: T1, Anti-PSMA Fab (SEQ ID NOs: 19, 20)
- T1 construct: Biotinylated PSMA Fab captured on neutravidin coated plates in the phage ELISA; also called 006 PSMA Fab
- Experimental Details: phage binding ELISA; biotinylated anti-PSMA Fab on neutravidin plate, bound phage detected with anti-M13-HRP
Where no end group is shown, it is not given here.
Quantity Name: Anti-PSMA Fab (SEQ ID NOs: 19, 20) signal

- Binder: "EITRCIPAWMCDFW [Phage-1865]"
  Quantitative Result: 2.13
- Binder: "LDKWCIPEWMCFDY [Phage-1862]"
  Quantitative Result: 2.14
- Binder: "FVPWCIPAWMCAEN (cysteine pairing not given here; also: displayed on phage as pIII fusion, pIII sequence and linker not given here) [Phage-1875]"
  Quantitative Result: 2.08
- Binder: "HVKWCIPAWMCEAS [Phage-1871]"
  Quantitative Result: 2.1
- Binder: "VMKWCIPEWMCQHT [Phage-1872]"
  Quantitative Result: 2.09
- Binder: "VEHWCIPAWMCEWM [Phage-1873]"
  Quantitative Result: 2.09
- Binder: "IMKWCIPEWMCYFF [Phage-1864]"
  Quantitative Result: 2.14
